Target: T1, 4H346-bN
T1 chain: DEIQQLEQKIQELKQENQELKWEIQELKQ
Assay: two-hybrid library CCNG1;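 also: natural log of median RNA to DNA barcode read ratio; higher means stronger binding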
Recorded interaction score values for a group of binders are listed next.
Parameter: interaction score

>>> print(df.to_string())
                                     binder          parameter  result_number
0  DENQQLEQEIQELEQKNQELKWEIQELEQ [4H1081-bN]  interaction score         -0.916
1  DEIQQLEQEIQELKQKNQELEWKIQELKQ [4H118-bN]  interaction score         -0.129
2  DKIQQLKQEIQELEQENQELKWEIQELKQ [4H2586-bN]  interaction score           1.97
3  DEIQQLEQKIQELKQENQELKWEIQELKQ [4H346-bN]  interaction score           1.02
4  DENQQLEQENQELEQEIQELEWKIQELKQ [4H1158-bN]  interaction score          -0.45
5  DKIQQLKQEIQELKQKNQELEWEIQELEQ [4H2673-bN]  interaction score         -0.543
